tgt: Recombinant rat AR (Rattus norvegicus)
Sequence (P15207 whole entry S389L): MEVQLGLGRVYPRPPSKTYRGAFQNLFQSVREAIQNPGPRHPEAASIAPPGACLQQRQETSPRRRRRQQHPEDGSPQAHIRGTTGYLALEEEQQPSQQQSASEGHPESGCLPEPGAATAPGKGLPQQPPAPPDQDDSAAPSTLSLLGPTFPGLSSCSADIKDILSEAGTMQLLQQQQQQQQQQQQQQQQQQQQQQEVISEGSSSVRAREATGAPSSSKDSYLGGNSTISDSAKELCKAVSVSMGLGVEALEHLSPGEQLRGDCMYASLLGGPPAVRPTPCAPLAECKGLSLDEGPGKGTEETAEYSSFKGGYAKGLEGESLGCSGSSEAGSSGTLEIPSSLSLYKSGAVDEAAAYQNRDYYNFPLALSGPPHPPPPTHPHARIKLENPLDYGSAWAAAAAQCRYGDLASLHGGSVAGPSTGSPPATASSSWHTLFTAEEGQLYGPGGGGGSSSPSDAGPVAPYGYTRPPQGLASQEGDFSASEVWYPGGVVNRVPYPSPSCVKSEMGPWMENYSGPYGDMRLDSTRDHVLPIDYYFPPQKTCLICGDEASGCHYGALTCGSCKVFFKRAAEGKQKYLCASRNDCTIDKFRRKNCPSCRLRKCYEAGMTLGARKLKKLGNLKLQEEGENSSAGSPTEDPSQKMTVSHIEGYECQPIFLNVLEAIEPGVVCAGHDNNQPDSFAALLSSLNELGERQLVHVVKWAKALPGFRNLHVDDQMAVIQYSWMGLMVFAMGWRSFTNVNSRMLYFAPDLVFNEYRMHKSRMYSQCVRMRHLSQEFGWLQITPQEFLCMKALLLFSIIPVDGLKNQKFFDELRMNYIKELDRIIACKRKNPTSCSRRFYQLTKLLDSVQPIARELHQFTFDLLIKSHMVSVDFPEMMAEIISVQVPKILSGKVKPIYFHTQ
experiment_notes: Competitive steroid binding assay to the androgen receptor with [3H]mibolerone
pKi: −log10 of the molar value.
Reported values of pKi for individual entries

molecule	pKi
C[C@]12CC[C@H]3[C@@H](CCC4=CC(=O)CC[C@@]43C)[C@@H]1[C@@H](O)C[C@@H]2O [15α-hydroxytestosterone, 15α,17β-dihydroxy-4-androsten-3-one]	5.74
C[C@]12CC[C@H]3[C@@H](CCC4=CC(=O)CC[C@@]43C)[C@@H]1C[C@H](O)[C@@H]2O [16β-hydroxytestosterone, 16β,17β-dihydroxy-4-androsten-3-one]	6.09
C[C@]12CC[C@H]3[C@@H](CCC4=CC(=O)CC[C@@]43C)[C@@H]1[C@H](O)C[C@@H]2O [15β-hydroxytestosterone, 15β,17β-dihydroxy-4-androsten-3-one]	6.25
